These data points were gathered from ChEMBL document CHEMBL3885861.

Species on record: Rattus norvegicus
assay.summary: Open TG-GATES - Regimen: Single
Assay type: toxicity, organism-based, Sprague-Dawley
Parameters: regimen Single, gender Male, age 6 weeks
condition.parameters: in vivo, po, 100 mg/kg, 24 h, tissue Plasma, route gavage, dose level Low
Items are presented alongside their recorded DBIL.
// return numeric value only (unit: mg/dL, not printed)

These recorded examples may help you get a feel for the data.
Clc1ccccc1CN1CCc2sccc2C1
0.072
O=C(O)c1cc(/N=N/c2ccc(S(=O)(=O)Nc3ccccn3)cc2)ccc1O
0.092
C[C@H](CS)C(=O)N1CCC[C@H]1C(=O)O
0.058
O=C(O)c1cn(C2CC2)c2cc(N3CCNCC3)c(F)cc2c1=O
0.058

Req: Consider the compound CCc1cc(C(N)=S)ccn1 [ETHIONAMIDE] and give its measured DBIL.
Resp: 0.026

---

Organism: Rattus norvegicus
assay.summary: Open TG-GATES - Regimen: Single
Format: toxicity, organism-based, Sprague-Dawley
Set-up: regimen Single, gender Male, age 6 weeks
condition.parameters: in vivo, po, 1000 mg/kg, 24 h, tissue Plasma, route gavage, dose level High
quantity.kind: IP (mg/dL)
// return numeric value only (unit: mg/dL, not printed)

O=C(O)c1cc(/N=N/c2ccc(S(=O)(=O)Nc3ccccn3)cc2)ccc1O
8.8

Req: Consider the molecule CCc1cc(C(N)=S)ccn1 [ETHIONAMIDE] and give its measured IP.
Resp: 8.3

Req: Consider the molecule `O=C(O)c1cn(C2CC2)c2cc(N3CCNCC3)c(F)cc2c1=O` and give its measured IP.
Resp: 9.9

Req: Consider the molecule `C[C@H](CS)C(=O)N1CCC[C@H]1C(=O)O` and give its measured IP.
Resp: 8.6

Req: Consider the molecule `Clc1ccccc1CN1CCc2sccc2C1` and give its measured IP.
Resp: 8.8

---

Species: Rattus norvegicus
assay.summary: Open TG-GATES - Regimen: Single
Format: toxicity, organism-based, Sprague-Dawley
Set-up: regimen Single, gender Male, age 6 weeks
condition.parameters: in vivo, po, 300 mg/kg, 6 h, tissue Blood, route gavage, dose level Middle
quantity.kind: Fbg (mg/dL)
// return numeric value only (unit: mg/dL, not printed)

Clc1ccccc1CN1CCc2sccc2C1 [TICLOPIDINE]
226.8
O=C(O)c1cn(C2CC2)c2cc(N3CCNCC3)c(F)cc2c1=O [CIPROFLOXACIN]
208.2
O=C(O)c1cc(/N=N/c2ccc(S(=O)(=O)Nc3ccccn3)cc2)ccc1O [SULFASALAZINE]
230.2

Now for the compound whose Fbg we want.
Req: Consider the compound CCc1cc(C(N)=S)ccn1 [ETHIONAMIDE] and give its measured Fbg.
Resp: 203

---

Organism: Rattus norvegicus
assay.summary: Open TG-GATES - Regimen: Daily Repeat
Type: toxicity, organism-based, Sprague-Dawley
Parameters: regimen Daily Repeat, gender Male, age 6 weeks
condition.parameters: in vivo, po, 0 mg/kg, 72 h, tissue Plasma, route gavage, dose level Control, time 3 day
quantity.kind: Ca (mg/dL)
// return numeric value only (unit: mg/dL, not printed)

These recorded examples may help you get a feel for the data.
CN(C)CCC=C1c2ccccc2CCc2ccccc21
11.2
COc1ccc2c(c1)c(CC(=O)O)c(C)n2C(=O)c1ccc(Cl)cc1
10.5
CC(=O)Oc1ccccc1C(=O)O
10.8
CSc1ccc2c(c1)N(CCC1CCCCN1C)c1ccccc1S2 (configuration not stated)
11.1
O=C(O)c1cn(C2CC2)c2cc(N3CCNCC3)c(F)cc2c1=O
11.4
Cn1c(=O)c2[nH]cnc2n(C)c1=O.O
10.7
O=C(O)c1cc(/N=N/c2ccc(S(=O)(=O)Nc3ccccn3)cc2)ccc1O
11
CCc1cc(C(N)=S)ccn1 [ETHIONAMIDE]
11
C[C@H](CS)C(=O)N1CCC[C@H]1C(=O)O
11.3
NC(=O)N/N=C/c1ccc([N+](=O)[O-])o1
11.4

Req: Consider the compound NC(=O)N1c2ccccc2C=Cc2ccccc21 [CARBAMAZEPINE] and give its measured Ca.
Resp: 10.7

Req: Consider the compound `COc1ccc(Cc2nccc3cc(OC)c(OC)cc23)cc1OC` and give its measured Ca.
Resp: 11
